- target: human Mdm2 (1-125) (human)
- assay_details: fluorescence polarisation
measurement_kind: pKd
Scale explanation: pKd corresponds to minus log10 of a concentration expressed in moles per litre.

query: Consider the substance MP-444: Ac-K(N3)-TF(X)EYWAQ(Cba)(X)EAFAAF-NH2 (peptide) and give its measured pKd.
result: 8.82
